Below: a set of entries, each annotated with reported MIC Streptococcus pyogenes (GC 4563).
test system: Streptococcus sp.; test: In vitro antibacterial evaluation: minimum inhibitory concentration (MIC), broth dilution method; type: cell-based; conditions: broth dilution, inoculum 5×10^5 CFU/mL, 18 hours at 35° C.
Excerpt: […]
Enter your answer as a number in µg/mL; do not include the unit.

The following compounds have reported results that may help.
[
  {
    "compound": "CC(c1ccccc1)C1NC(=O)CNC(=O)C(CO)NC(=O)C(C(O)C2CNC(=N)N2C2OC(CO)C(O)C(O)C2O)NC(=O)C(C(O)C2CNC(=N)N2)NC(=O)C(Cc2ccc(OC3OC(CO)C(OC4OC(CO)C(O)C5OC(c6ccc(-c7ccsc7)cc6)OC45)C(O)C3O)cc2)NC1=O (stereo not shown) [Example 164a]",
    "observed_measurement": 0.5
  },
  {
    "compound": "CC(c1ccccc1)C1NC(=O)CNC(=O)C(CO)NC(=O)C(C(O)C2CNC(=N)N2C2OC(CO)C(O)C(O)C2O)NC(=O)C(C(O)C2CNC(=N)N2)NC(=O)C(Cc2ccc(OC3OC(CO)C(OC4OC5COC(c6ccc(C=Cc7ccccc7)cc6)OC5C(O)C4O)C(O)C3O)cc2)NC1=O (stereo not shown) [Example 172]",
    "observed_measurement": 0.12
  },
  {
    "compound": "COc1ccc(COCC2OC(OC3C(CO)OC(Oc4ccc(CC5NC(=O)C(C(C)c6ccccc6)NC(=O)CNC(=O)C(CO)NC(=O)C(C(O)C6CNC(=N)N6C6OC(CO)C(O)C(O)C6O)NC(=O)C(C(O)C6CNC(=N)N6)NC5=O)cc4)C(O)C3O)C(O)C(O)C2O)c2ccccc12 (stereo not shown) [Example 240]",
    "observed_measurement": 0.5
  },
  {
    "compound": "CC(c1ccccc1)C1NC(=O)CNC(=O)C(CO)NC(=O)C(C(O)C2CNC(=N)N2C2OC(CO)C(O)C(O)C2O)NC(=O)C(C(O)C2CNC(=N)N2)NC(=O)C(Cc2ccc(OC3OC(CO)C(OC4OC5COC(c6ccccc6)OC5C(O)C4O)C(O)C3O)c(I)c2)NC1=O (stereo not shown) [Example 196]",
    "observed_measurement": 32
  }
]

Shift focus to the following entry.
State its MIC Streptococcus pyogenes (GC 4563) for this compound: CC(C)=CCOc1cccc(C2OCC3OC(OC4C(CO)OC(Oc5ccc(CC6NC(=O)C(C(C)c7ccccc7)NC(=O)CNC(=O)C(CO)NC(=O)C(C(O)C7CNC(=N)N7C7OC(CO)C(O)C(O)C7O)NC(=O)C(C(O)C7CNC(=N)N7)NC6=O)cc5)C(O)C4O)C(O)C(O)C3O2)c1 (stereo not shown) [Example 165] 0.12
